The measured values listed here are drawn from paper PMC11256303.

Molecular target: α-amylase
Test: in vitro α-amylase inhibition
Details: read-out: alpha-amylase IC50 ± SEM, standard acarbose
pIC50: −log10 of the molar value.
Threshold check on pIC50: at or above 5 gives label 1, strictly below gives label 0.

Worked examples follow.
Clc1ccc(/C=N\c2nsc(Nc3ccc(Cl)c(Cl)c3)n2)cc1Cl	label 1
Cc1ccc(/C=N\c2nsc(Nc3ccc(Cl)c(Cl)c3)n2)cc1	label 0
FC(F)(F)c1cccc(Nc2nc(/N=C\c3ccc(Cl)cc3)ns2)c1	label 1
Clc1ccc(Nc2nc(/N=C\c3ccc(Br)cc3)ns2)cc1Cl	label 0
COc1ccccc1/C=N\c1nsc(Nc2ccc(Cl)c(Cl)c2)n1	label 0
COc1cccc(/C=N\c2nsc(Nc3ccc(Cl)c(Cl)c3)n2)c1	label 0

Continue with the next compound.
Please indicate if the recorded pIC50 for FC(F)(F)c1cccc(Nc2nc(/N=C/c3ccc(Cl)cc3Cl)ns2)c1 meets or exceeds 5.
label 1
